The reported measurements were obtained from ChEMBL document CHEMBL1138835.

molecular target: Bifunctional dihydrofolate reductase-thymidylate synthase (Plasmodium falciparum K1, UniProt P13922, C59R/I164L/N51I/S108N); test: Binding affinity towards mutant dihydrofolate reductase (N51I+C59R+S108N+I164L DHFR) of Plasmodium falciparum
Sequence (P13922 whole entry, looked up, stated change not applied): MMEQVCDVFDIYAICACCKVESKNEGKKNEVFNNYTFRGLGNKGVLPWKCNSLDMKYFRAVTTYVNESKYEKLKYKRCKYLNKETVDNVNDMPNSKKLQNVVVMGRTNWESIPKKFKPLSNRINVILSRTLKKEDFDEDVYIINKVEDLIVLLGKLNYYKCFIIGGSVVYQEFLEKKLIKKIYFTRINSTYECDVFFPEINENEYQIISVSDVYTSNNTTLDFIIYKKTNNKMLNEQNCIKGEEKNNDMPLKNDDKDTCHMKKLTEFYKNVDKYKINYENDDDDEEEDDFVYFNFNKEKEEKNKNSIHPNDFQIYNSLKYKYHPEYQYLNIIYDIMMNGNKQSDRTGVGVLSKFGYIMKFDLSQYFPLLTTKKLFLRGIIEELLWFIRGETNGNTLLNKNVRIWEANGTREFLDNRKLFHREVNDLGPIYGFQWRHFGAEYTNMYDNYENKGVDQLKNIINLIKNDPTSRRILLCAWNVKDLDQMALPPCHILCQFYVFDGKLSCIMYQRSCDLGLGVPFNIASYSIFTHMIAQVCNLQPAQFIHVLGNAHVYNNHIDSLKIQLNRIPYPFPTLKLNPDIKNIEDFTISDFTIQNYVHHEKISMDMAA
Our labelling divides records by Ki into ranges: low: < 0.003 µM; middle: ≥ 0.003 µM and < 0.2 µM; high: ≥ 0.2 µM

compound | answer-label
COC(=O)CCCc1nc(N)nc(N)c1-c1cccc(Cl)c1 | low
CCCOc1ccc(C2N=C(N)N=C(N)N2c2cccc(Cl)c2)cc1 (stereo unspecified) | low

Problem: Form field 'band' for `Nc1nc(N)c(-c2ccccc2)c(CCCOC(=O)c2ccccc2)n1`
Solution: middle

Problem: Form field 'band' for NC1=NC(c2ccccc2)N(c2cccc(Cl)c2)C(N)=N1 (stereo unspecified)
Solution: high

Problem: Form field 'band' for CC1N=C(N)N=C(N)N1c1ccc(Cl)cc1 (stereo unspecified)
Solution: high
